What Percent Effect was measured for each of the following?
test system: Mycobacterium tuberculosis; experiment: Cornell M. t heat shock assay; format: functional, organism-based; parameters: dose or concentration left out as unconfirmed; also: in the data most compounds retested in dose-response had high values
Among all 69,000 compounds or so, about 950 (1.4%) showed an effect of 50% or more. The full list was thinned out, with strong results kept by preference.
Record the value in %, omitting the unit from your answer.

Reported Percent Effect, molecule Cc1cc(Nc2cnccn2)nc(C2CCCN(CCO)C2)n1 (centres undefined) : ____
103.5

Which measured Percent Effect value corresponds to CN(C)C(=O)N1C[C@@H]2CC[C@H](C1)N(Cc1nnc(-c3ccccc3)o1)C2 ?
16.99

Could you share which Percent Effect value was measured for Cc1cc(NC(=O)NCCc2ccccc2)n(C)n1 ?
-19.68

So what does the record say about Percent Effect for COc1cc(C)c(-c2ccc(F)c3c2OC(CN)C3)cc1C (centres undefined) ?
51.67

# Percent Effect lookup, item COc1ccc(CCNC(=O)Nc2cc(C)nn2C)cc1
8.379

Any idea what Percent Effect was measured for CN(Cc1noc(C2CC2)n1)C1CCN(Cc2ccncc2)C1 (centres undefined) ?
51.32

Give the measured Percent Effect of CC(C)Cc1nc(-c2ccnc(N3CCNCC3)n2)no1.Cl.Cl .
-11.54

Can you share its Percent Effect? I mean this molecule: O=C(N[C@@H]1CN(Cc2ccccc2)C[C@@H]2CCCO[C@@H]21)C1CC1.O=C(O)C(F)(F)F
-8.331

GET /values?readout=Percent Effect&item= Cc1cnccc1NC(=O)CCc1ccsc1
-21.59

Entry CN(Cc1noc(C2CC2)n1)C1CCN(Cc2ccc(F)c(F)c2)C1 (centres undefined) has what Percent Effect?
-5.311

If you can, please state the reported Percent Effect value of COc1cc(-c2ccc(F)c3c2OC(CN)C3)cc(OC)c1OC (centres undefined) .
-5.435

Which value of Percent Effect has been reported for Cc1cc(NC(=O)NCCc2ccsc2)n(C)n1 in the records?
63.69

Item COc1ccsc1C(=O)NCCNc1ccccc1 has what recorded Percent Effect?
-5.187

Recorded Percent Effect for CC(=O)N(Cc1noc(C2CC2)n1)C1CCN(Cc2ccncc2)C1 (centres undefined) , please?
-2.088

What measured Percent Effect goes with C/N=C1/c2cc3cc(OC)ccc3n2CCN1Cc1ccccc1.Cl ?
-17.35

Given the entry CN(Cc1noc(C2CC2)n1)C1CCN(CCc2cccs2)C1 (centres undefined) , report its measured Percent Effect.
12.6

Which Percent Effect is listed for COc1cccnc1-c1ccc(F)c2c1OC(CN)C2 (centres undefined) ?
-14.02

Quick one: Percent Effect of Cc1cc(Nc2ncccn2)nc(C2CCCN(CCO)C2)n1 (centres undefined) ?
17.06

Given the molecule O=C(O)C(F)(F)F.c1ccc(N2CCCC3(CCN(Cc4ccsc4)C3)C2)nc1 (centres undefined) , what is its reported Percent Effect?
-1.694

Recorded Percent Effect for CC(C)=CCN1C(=O)[C@H]2CC[C@@H]1CN(Cc1cccnc1N)C2 , please?
105.7

Fill in the blank: the reported Percent Effect of Cc1noc(C)c1CN1C(=O)[C@H]2CC[C@@H]1CN(Cc1cccnc1N)C2 is ____.
4.913

Would you mind telling me what Percent Effect value was observed for CN(Cc1noc(C2CC2)n1)C1CCN(CCc2cnn(C)c2)C1 (centres undefined) ?
-5.5

What value of Percent Effect has been recorded for this entry: Cc1cc(Nc2ccccn2)nc(C2CCCN(CCO)C2)n1.O=CO (centres undefined)
-14.49

Endpoint output: Percent Effect of Cc1cc(NC(=O)CCc2ccsc2)n(C)n1 . Value?
89.31

----------
test system: Mycobacterium tuberculosis; experiment: Cornell M. t heat shock assay; format: functional, organism-based; parameters: dose or concentration left out as unconfirmed; also: in the data most compounds retested in dose-response had high values
Hit rate of the full screen: of about 69,000 compounds, about 950 (1.4%) showed an effect of 50% or more. The sample as a whole holds a higher share of strong results than the screen did.
test_readout: Percent Effect (%)
Number only, in %; omit the unit.

Returns the measured Percent Effect for the input compound. Input: CC(C)c1nc(CSc2nnc(-c3cccs3)n2CC(N)=O)no1
87.51

Request the reported Percent Effect associated with CNC(=O)C1CCN(Cc2nc(-c3ccc(SC)cc3)oc2C)C1 (centres undefined)
12.81

Which Percent Effect is reported for this compound? CCCNC(c1cccnc1)c1ccc(F)c(C)c1.Cl.Cl (centres undefined)
-18.54

What does the data say about its Percent Effect? Entry: Cl.Cn1nc(C2CCN(C(=O)CN3CCCCC3)CC2)c2cccnc21
-23.31

Query: Percent Effect; subject: CCn1ccnc1CN1CCN(c2cc(C)nc(C3CCCN3)c2)CC1.Cl (centres undefined)
-8.62

For the compound shown here, CNC(=O)CC1CCN(Cc2nc(-c3cccc(Cl)c3)oc2C)CC1 , give the reported Percent Effect.
52.75

Quick one: Percent Effect of CCc1n[nH]c(C(=O)NCCn2nccc2C)c1C ?
66.56

Please report the recorded Percent Effect for Cc1cs/c(=N/C(=O)c2csc(NCC(C)C)n2)[nH]1 .
102.2

Requested read-out: Percent Effect. Entry: O=C(Cc1ccccc1F)N1C[C@@H]2COC[C@]2(COc2cccnc2)C1.O=C(O)C(F)(F)F
-4.707

Endpoint output: Percent Effect of O=c1[nH]c(N2CCCCC2)nc2c1CCN(Cc1cccnc1)C2 . Value?
-9.833

Fill in the blank: the reported Percent Effect of CC(C)CN1CCC(N2CCC(C(=O)N(C)C)CC2)CC1.O=C(O)C(F)(F)F.O=C(O)C(F)(F)F is ____.
9.102

I'd like to know its Percent Effect. The compound in question is Cl.Cn1nc(C2CCCN(Cc3cccs3)C2)c2nccnc21 (centres undefined)
1.565

For the compound CCc1noc(CS(=O)(=O)Cc2ccccc2C)n1 , what Percent Effect is on record?
31.56

// query Percent Effect value for entry Cc1cc(O)c(OCC(=O)/N=c2\[nH]c(C)c(C)s2)cn1
14.69

# input compound: O=S(=O)(CCc1ccccc1)Cc1nc(C2CC2)no1 ; wanted: its Percent Effect
59.77

Recorded Percent Effect of O=S(=O)(Cc1nc(C2CC2)no1)c1ccccc1F , please.
12.43

Which Percent Effect value belongs to CC1CN(CC(=O)NCCc2ccccc2)CCN1c1nccs1 (centres undefined) ?
-17

Query (compound): CCc1ncnc2c1CCN(C(=O)c1ccccn1)CC2.O=C(O)C(F)(F)F ; field requested: Percent Effect
-22.3

Percent Effect lookup needed for Cc1noc(C)c1CS(=O)(=O)Cc1nc(C2CC2)no1 , thanks.
6.324

So what does the record say about Percent Effect for Cc1ccoc1C(=O)N1CCc2ccc(=O)n(CCN(C)C)c2CC1.O=C(O)C(F)(F)F ?
-10.47

Record request: Percent Effect value, item Cc1cs/c(=N\C(=O)c2c3c(nc4onc(C)c24)CCC3)[nH]1
-0.1888

Reported Percent Effect, compound O=C(O)C(F)(F)F.O=C(O)C(F)(F)F.c1cncc(COCc2nnn3c2CN(Cc2ccsc2)CC3)c1 : ____
-26.71

Fill blank: measured Percent Effect of the compound NC(=O)Cn1c(SCc2noc(-c3ccsc3)n2)nnc1C1CC1 is ____.
-1.649

Which value of Percent Effect has been reported for Cl.NC(=O)CCc1cccc(C2CCNCC2)n1 in the records?
3.085

Name the reported Percent Effect value associated with the compound CC(C)n1c(C2CCCN(CC(=O)NC3CC3)C2)nc2ccccc21 (centres undefined)
-32.24

Query (compound): CCN1CCc2c(sc3c2C(=O)NC(/C=C/c2ccco2)N3)C1 (centres undefined) ; field requested: Percent Effect
-25.76

Return reported Percent Effect; argument: Cl.Fc1ccc(Cc2cnc(C3CCCN3)cn2)cc1 (centres undefined)
-27.64

Fill in: Percent Effect of COc1ccc(CN2CC(=O)N(c3ccc(C)cc3)CC2C)cc1O (centres undefined) is ___
-4.116

Suppose we examine the compound CCn1ncc(CN2CCc3c(nc(-c4cccnc4)[nH]c3=O)C2)c1C ; what Percent Effect value has been reported?
-178.1

Recorded Percent Effect for O=S(=O)(Cc1nc(C2CC2)no1)c1cc(F)ccc1F , please?
12.65

Entry CN1C(=O)C(c2ccccc2)CC12CCN(CCO)CC2.O=C(O)C(F)(F)F (centres undefined) has what Percent Effect?
-21.97

What does the record list as Percent Effect for COCC1c2c(cnn2CC2CC2)CCN1Cc1ccsc1.O=C(O)C(F)(F)F.O=C(O)C(F)(F)F (centres undefined) ?
-18.97

So what does the record say about Percent Effect for Cc1ncccc1NC(=O)[C@@H]1CCO[C@@H]2CCN(c3ccccc3)C[C@@H]21.O=C(O)C(F)(F)F.O=C(O)C(F)(F)F ?
12.9

For CN(C)C(=O)N1CCN(Cc2cnn(C)c2)CC2(CNC(=O)C2)C1.O=C(O)C(F)(F)F (centres undefined) , what is its reported Percent Effect?
0.6854

Percent Effect for CCc1n[nH]c(C(=O)NCCn2ccnc2C)c1C ?
-101

Which Percent Effect is listed for COc1cccc(OC)c1CN1CC(=O)N(c2ccc(C)cc2)CC1C (centres undefined) ?
53.82

Fill blank: measured Percent Effect of the compound Cl.O=C(NC1CCCC1)c1cc(C2CCCNC2)n[nH]1 (centres undefined) is ____.
2.974

Name the reported Percent Effect value associated with the compound CNC(=O)c1cccc(CNC(C)c2cc(Cl)ccc2OC)c1 (centres undefined)
-13.72

Give the measured Percent Effect of CNC(=O)c1cccc(CNC(C)c2cc(C)ccc2OC(F)F)c1 (centres undefined) .
-18.66

Any idea what Percent Effect was measured for Cn1ccc(CN2CCCC23CCN(Cc2nccn2C)CC3)n1.O=C(O)C(F)(F)F.O=C(O)C(F)(F)F ?
9.444

# Percent Effect lookup, item COc1ccc(CN2CCc3c(nc(-c4ccccn4)[nH]c3=O)C2)cc1
89.16

What does the record list as Percent Effect for CNC(=O)CC1CCN(Cc2nc(-c3ccc(SC)cc3)oc2C)CC1 ?
1.977

Quick check: Percent Effect of CCc1n[nH]c(C(=O)NCCn2ccc(C)n2)c1C ?
-5.809

Please look up its Percent Effect: CCc1noc(CS(=O)(=O)Cc2nc(Cc3ccccc3)no2)n1
-8.996
